method-notes: Antioxidant activity assessed as ABTS free radical scavenging activity measured up to 6 mins by spectrophotometric analysis
Assay type: functional
reported-endpoint: EC50 (µM)

Below, 3 compounds whose answers are already recorded.
compound	EC50 [µM]
COc1c(C)cc(O)cc1C/C=C(\C)CC(=O)/C=C(/C)CCCC(C)C(=O)/C=C/C(C)(C)O (stereo unspecified)	26.3
Cc1c(C)c2c(c(C)c1O)CCC(C)(C(=O)O)O2 (stereo unspecified) [TROLOX]	25.9
COc1c(C)cc(O)cc1C/C=C(\C)CC(=O)/C=C(\C)CCCC(C)(O)C(=O)/C=C/C(C)(C)O (stereo unspecified)	33.1

(I) COc1c(C)cc(O)cc1/C=C/C(C)(O)CC(=O)/C=C(\C)CCCC(C)C(=O)/C=C/C(C)(C)O (stereo unspecified) [CYSTODIONE B]
(II) COc1c(C)cc(O)cc1/C=C/C(C)(O)CC(=O)/C=C(/C)CCCC(C)=O (stereo unspecified) [CYSTODIONE C]
For this pair, I and II , which shows a numerically higher EC50? Provide the label of your selected option as the answer.
II
(II: 55.9 µM, I: 24.4 µM)

(P) COc1c(C)cc(O)cc1/C=C/C(C)(O)CC(=O)/C=C(\C)CCCC(C)=O (stereo unspecified) [CYSTODIONE D]
(Q) COc1c(C)cc(O)cc1C/C=C(\C)CC(=O)/C=C(\C)CCCC(C)C(=O)/C=C/C(C)(C)O (stereo unspecified)
Select the item whose EC50 value is smaller, choosing between P and Q . Response format: the label of the selected entry.
Q

(I) COc1c(C)cc(O)cc1/C=C/C(C)(O)CC(=O)/C=C(/C)CCCC(C)C(=O)/C=C/C(C)(C)O (stereo unspecified) [CYSTODIONE A]
(II) COc1c(C)cc(O)cc1C/C=C(\C)CC(=O)/C=C(/C)CCCC(C)=O [CYSTOMEXICONE A]
(III) COc1c(C)cc(O)cc1C/C=C(\C)CC(=O)/C=C(\C)CCCC(C)=O [CYSTOMEXICONE B]
Order the records so the highest EC50 appears first and the lowest last. Rank them, then answer with their labels in that order.
II, III, I
